These measurements were taken from patent US20260166039A1.

biological target: Wee1 kinase domain (Homo sapiens, UniProt P30291); construct: Wee1 kinase domain was purchased from Carna (catalog #05-177); purchased Carna 05-177; assay: Wee1 Kinase Biochemical Assay (ADP-Glo); details: class symbols; 1 nM Wee1 enzyme, 15 uM ATP, 4 hours at 25° C.
Sequence (P30291 299-569 limits assumed): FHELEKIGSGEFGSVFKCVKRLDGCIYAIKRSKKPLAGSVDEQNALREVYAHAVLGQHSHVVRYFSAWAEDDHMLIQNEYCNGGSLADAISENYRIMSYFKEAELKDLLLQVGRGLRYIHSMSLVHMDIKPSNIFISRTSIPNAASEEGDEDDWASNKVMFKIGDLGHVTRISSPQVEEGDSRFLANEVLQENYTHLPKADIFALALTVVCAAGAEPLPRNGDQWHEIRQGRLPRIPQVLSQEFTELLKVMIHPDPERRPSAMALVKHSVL
pIC50: −log10 of the molar value.
Recorded pIC50, one value per entry.

Cc1cc(Nc2ncc3c(n2)N(c2cccc(C(C)(C)O)n2)[C@@H]2CC(C)(C)OC[C@]32C)ccc1N1C[C@@H]2C[C@H]1CN2C (single isomer, unassigned) [Example 429]; > 8.00
Cn1ncc(Nc2ncc3c(n2)N(c2cccc(N=S(C)(C)=O)n2)[C@@H]2CC(C)(C)OC[C@]32C)n1 (single isomer, unassigned) [Example 515]; > 8.00
CN1[C@@H]2C[C@H]1CN(c1ccc(Nc3ncc4c(n3)N(c3cccc(C(C)(C)O)n3)[C@H]3CC(C)(C)OC[C@@]43C)cc1)C2 (single isomer, unassigned) [Example 442]; 6.00 to 7.00
CC1(C)C[C@@H]2N(c3cccc(N4CCOC4=O)n3)c3nc(Nc4ccc([C@H]5CCNC5)cc4)ncc3[C@]2(C)CO1 [Example 609]; 7.00 to 8.00
CC1(C)C[C@@H]2N(c3cccc(N4CCOC4=O)n3)c3nc(Nc4ccc([C@@H]5CCNC5)cc4)ncc3[C@]2(C)CO1 (single isomer, unassigned) [Example 606]; 7.00 to 8.00
CN1C[C@H]2C[C@@H]1CN2c1ccc(Nc2ncc3c(n2)N(c2cccc(C4(O)COC4)n2)[C@@H]2CC(C)(C)OC[C@]32C)cc1 (single isomer, unassigned) [Example 517]; > 8.00
CN1CC[C@@H](Oc2ccc(Nc3ncc4c(n3)N(c3cccc(N5CCOC5=O)n3)[C@H]3CC(C)(C)OC[C@@]43C)cc2)C1 [Example 625]; 7.00 to 8.00
CN1C[C@@H]2C[C@H]1CN2c1ccc(Nc2ncc3c(n2)N(c2cccc(N4CCOC4=O)n2)[C@@H]2CC(C)(C)OC[C@]32C)cc1 (single isomer, unassigned) [Example 595]; > 8.00
Cn1ccc(Nc2ncc3c(n2)N(c2cccc(N=S(C)(C)=O)n2)[C@@H]2CC(C)(C)OC[C@]32C)n1 (single isomer, unassigned) [Example 513]; > 8.00
CN1CCN(c2ccc(Nc3ncc4c(n3)N(c3cccc(S(C)(=O)=O)n3)[C@@H]3CC(C)(C)OC[C@]43C)cc2)CC1 (single isomer, unassigned) [Example 749]; > 8.00

Summary for this compound, CNCc1cccc(N2c3nc(NC(=O)[C@H]4C[C@@H]4c4cccnc4)ncc3[C@@]3(C)COC(C)(C)C[C@@H]23)n1 [Example 769] : pIC50 is 6.00 to 7.00

Form field pIC50, entry CN1CCN(c2ccc(Nc3ncc4c(n3)N(c3cccc(N5CCCC5=O)n3)[C@H]3CC(C)(C)OC[C@@]43C)cc2)CC1 (single isomer, unassigned) [Example 586] : 7.00 to 8.00

Data point: CC1(C)C[C@H]2N(c3cccc(N4CCOC4=O)n3)c3nc(Nc4ccc(N5CCNCC5)cc4)ncc3[C@@]2(C)CO1 (single isomer, unassigned) [Example 601] ; pIC50 = > 8.00

---

Entries and their measured pIC50 follow.
target: Wee1 kinase domain (Homo sapiens, UniProt P30291); construct: Wee1 kinase domain was purchased from Carna (catalog #05-177); purchased Carna 05-177; test: Wee1 Kinase Biochemical Assay (ADP-Glo); details: class symbols; 1 nM Wee1 enzyme, 15 uM ATP, 4 hours at 25° C.
pIC50: −log10 of the molar value.

Previously resolved entries follow.
C[C@H]1CCC(=O)N1c1cccc(N2c3nc(Nc4ccc(N5CC6(CN(C)C6)C5)cc4)ncc3[C@@]3(C)COCC[C@@H]23)n1 (single isomer, unassigned) [Example 776]; > 8.00
Cc1cc(Nc2ncc3c(n2)N(c2cccc(C(C)(C)O)n2)[C@H]2CC(C)(C)OC[C@@]32C)ccc1N1C[C@H]2C[C@@H]1CN2C (single isomer, unassigned) [Example 426]; 7.00 to 8.00
C[C@H]1CN(c2ccc(Nc3ncc4c(n3)N(c3cccc(N=S(C)(C)=O)n3)[C@@H]3CC(C)(C)OC[C@]43C)cc2)CCN1C (single isomer, unassigned) [Example 500]; > 8.00

Measured pIC50, CC1(C)C[C@H]2N(c3cccc(N=S(C)(C)=O)n3)c3nc(Nc4ccncc4)ncc3[C@@]2(C)CO1 (single isomer, unassigned) [Example 512] : 6.00 to 7.00

Given item CC1(C)C[C@H]2N(c3cccc([C@@H]4COCCN4)n3)c3nc(Nc4ccc(N5CCOCC5)cc4)ncc3[C@@]2(C)CO1 [Example 734] , the value recorded as its pIC50 is > 8.00
